Test system: panel of 55 breast cancer cell lines
EXPERIMENT_DESCRIPTION: Cell growth inhibition assay (Cell Titer Glo, 72 h, 9 doses; GI50, TGI, LC50)
Assay type: cell-based, human
SETTINGS: cell line SUM1315MO; value is the negative log10 of mol/L
# label = t if GI50 < 5 else f

{"COMPOUND": "CC(=O)Nc1cccc(-n2c(=O)n(C3CC3)c(=O)c3c(Nc4ccc(I)cc4F)n(C)c(=O)c(C)c32)c1.C[S+](C)[O-] [GSK1120212B]", "STUDY_SYSTEM": "panel of 55 breast cancer cell lines", "LABEL": "f"}
{"COMPOUND": "CCNCCCCNCCCCNCCCCNCCCCNCC=CCNCCCCNCCCCNCCCCNCCCCNCC.Cl.Cl.Cl.Cl.Cl.Cl.Cl.Cl.Cl.Cl (stereo in doubt)", "STUDY_SYSTEM": "panel of 55 breast cancer cell lines", "LABEL": "f"}
{"COMPOUND": "COc1cc2ncnc(Nc3cccc(Cl)c3)c2cc1OC", "STUDY_SYSTEM": "panel of 55 breast cancer cell lines", "LABEL": "f"}
{"COMPOUND": "NS(=O)(=O)c1ccc(Nc2nc(OCC3CCCCC3)c3[nH]cnc3n2)cc1", "STUDY_SYSTEM": "panel of 55 breast cancer cell lines", "LABEL": "f"}
{"COMPOUND": "Cc1cc(Nc2cc(N3CCN(C)CC3)nc(Sc3ccc(NC(=O)C4CC4)cc3)n2)n[nH]1", "STUDY_SYSTEM": "panel of 55 breast cancer cell lines", "LABEL": "f"}
{"COMPOUND": "CC(/C=C/C(=O)NO)=C\\[C@@H](C)C(=O)c1ccc(N(C)C)cc1", "STUDY_SYSTEM": "panel of 55 breast cancer cell lines", "LABEL": "t"}
{"COMPOUND": "O=C1NC(=O)/C(=C/c2ccc(-c3ccc(F)cc3O)o2)S1", "STUDY_SYSTEM": "panel of 55 breast cancer cell lines", "LABEL": "t"}
{"COMPOUND": "COc1cc2c(Nc3ccc(NC(=O)c4ccccc4)cc3)ncnc2cc1OCCCN1CCOCC1", "STUDY_SYSTEM": "panel of 55 breast cancer cell lines", "LABEL": "t"}
{"COMPOUND": "CC(C)(C)c1cc(C=C(C#N)C#N)cc(Br)c1O", "STUDY_SYSTEM": "panel of 55 breast cancer cell lines", "LABEL": "f"}
{"COMPOUND": "CC(C)Oc1ccc(C(=O)N[C@H](CNC(=O)CN(C)C)Cc2ccc(-c3cn4cccc([C@H](C)O)c4n3)cc2)cc1Cl", "STUDY_SYSTEM": "panel of 55 breast cancer cell lines", "LABEL": "f"}
{"COMPOUND": "Cc1cc(C(=O)N2CCN(c3cccc(Cl)c3)CC2)n(-c2ccccc2)n1 [XRP44X]", "STUDY_SYSTEM": "panel of 55 breast cancer cell lines", "LABEL": "f"}
{"COMPOUND": "Oc1cc(-c2nc(-c3ccccc3)[nH]c2-c2ccncc2)ccc1Cl", "STUDY_SYSTEM": "panel of 55 breast cancer cell lines", "LABEL": "t"}
{"COMPOUND": "O=C1C(Cl)=C(NCCN2CCOCC2)C(=O)c2ncccc21", "STUDY_SYSTEM": "panel of 55 breast cancer cell lines", "LABEL": "f"}
